These measurements were taken from the RNAGym collection of RNA variant scans (doi:10.1073/pnas.2313332121).

B1: TPR 5TU (parent)
chain: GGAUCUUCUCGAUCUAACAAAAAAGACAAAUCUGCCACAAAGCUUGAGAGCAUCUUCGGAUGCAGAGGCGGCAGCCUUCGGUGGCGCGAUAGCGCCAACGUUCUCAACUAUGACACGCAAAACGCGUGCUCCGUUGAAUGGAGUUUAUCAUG

- Variants of: B1
- testName: polymerase ribozyme fitness, log enrichment relative to wild type (log ratio); higher = more active; in vitro selection for triplet polymerase activity
This sample holds only a part of the variants without activity.
reportedProperty: polymerase ribozyme fitness (log ratio)

C14G A28G C51U A52U G88A U109G :: ≤ -4.2
C51A A60G C95G U146C U151G :: ≤ -4.2
C10G U13G C87U C125U :: ≤ -4.2
A24U A39U C96A C99G U130C C131G :: ≤ -4.2
U31G C93G G133U U134C :: ≤ -4.2

Attention now shifts to the item below.
Please give the measured polymerase ribozyme fitness (log ratio) for this variant: C32U A49C G92U C99A A115G A147C
≤ -4.2
